- TEST SYSTEM: Diamine acetyltransferase 1 (Mus musculus) (UniProt P48026)
- Sequence (P48026 whole entry): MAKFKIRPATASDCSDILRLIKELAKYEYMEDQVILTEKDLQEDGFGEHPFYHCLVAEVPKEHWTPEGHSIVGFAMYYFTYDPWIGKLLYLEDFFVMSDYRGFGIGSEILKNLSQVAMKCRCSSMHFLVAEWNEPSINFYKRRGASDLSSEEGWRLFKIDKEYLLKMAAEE
- EXPERIMENT DESCRIPTION: Compound was tested for the enzyme activity against Spermidine/spermine N1-acetyl transferase (SSAT) in L1210 cells and expressed as percent compound found in untreated controls.
- Type: cell-based
The following compounds are listed with their measured Activity values.
Answer with a number only, understood to be in %.

Consider the following illustrative entries.
# MOL, RESULT UNIT, Activity
measured = [
    ("Cc1c(O)c(=O)ccn1C", "%", 108),
    ("CCNCCCNCCCCNCCCN", "%", 150),
    ("Cc1c(O)c(=O)ccn1CCCNCCCCNCCCN", "%", 275),
]

# return recorded Activity for input CCCNCCCCNCCCN 500
